The origin of these recorded values is patent US20240376185A1.

target: tetanus neurotoxin (TeNT), authentic tetanus holotoxin (Clostridium tetani, UniProt P04958 2-1315); assay: competition ELISA on TeNT, binder biotinylated; competitor SVT22L; note: test concentration or dose not given here
Sequence (P04958 2-457 limits assumed, chain 1 of 2): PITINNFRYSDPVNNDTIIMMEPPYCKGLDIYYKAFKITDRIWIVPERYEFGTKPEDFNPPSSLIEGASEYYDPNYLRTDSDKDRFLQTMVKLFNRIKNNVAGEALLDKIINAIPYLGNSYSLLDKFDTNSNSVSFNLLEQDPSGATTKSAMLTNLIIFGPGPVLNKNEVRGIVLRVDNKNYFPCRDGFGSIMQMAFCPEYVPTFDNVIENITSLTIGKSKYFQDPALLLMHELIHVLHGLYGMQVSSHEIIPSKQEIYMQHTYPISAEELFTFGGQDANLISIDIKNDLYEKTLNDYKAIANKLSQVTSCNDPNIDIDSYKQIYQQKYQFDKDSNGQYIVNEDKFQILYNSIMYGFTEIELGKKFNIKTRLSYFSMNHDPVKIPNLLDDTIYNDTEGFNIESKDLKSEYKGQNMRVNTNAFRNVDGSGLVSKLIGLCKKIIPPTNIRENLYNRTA
Sequence (P04958 458-1315 limits assumed, chain 2 of 2): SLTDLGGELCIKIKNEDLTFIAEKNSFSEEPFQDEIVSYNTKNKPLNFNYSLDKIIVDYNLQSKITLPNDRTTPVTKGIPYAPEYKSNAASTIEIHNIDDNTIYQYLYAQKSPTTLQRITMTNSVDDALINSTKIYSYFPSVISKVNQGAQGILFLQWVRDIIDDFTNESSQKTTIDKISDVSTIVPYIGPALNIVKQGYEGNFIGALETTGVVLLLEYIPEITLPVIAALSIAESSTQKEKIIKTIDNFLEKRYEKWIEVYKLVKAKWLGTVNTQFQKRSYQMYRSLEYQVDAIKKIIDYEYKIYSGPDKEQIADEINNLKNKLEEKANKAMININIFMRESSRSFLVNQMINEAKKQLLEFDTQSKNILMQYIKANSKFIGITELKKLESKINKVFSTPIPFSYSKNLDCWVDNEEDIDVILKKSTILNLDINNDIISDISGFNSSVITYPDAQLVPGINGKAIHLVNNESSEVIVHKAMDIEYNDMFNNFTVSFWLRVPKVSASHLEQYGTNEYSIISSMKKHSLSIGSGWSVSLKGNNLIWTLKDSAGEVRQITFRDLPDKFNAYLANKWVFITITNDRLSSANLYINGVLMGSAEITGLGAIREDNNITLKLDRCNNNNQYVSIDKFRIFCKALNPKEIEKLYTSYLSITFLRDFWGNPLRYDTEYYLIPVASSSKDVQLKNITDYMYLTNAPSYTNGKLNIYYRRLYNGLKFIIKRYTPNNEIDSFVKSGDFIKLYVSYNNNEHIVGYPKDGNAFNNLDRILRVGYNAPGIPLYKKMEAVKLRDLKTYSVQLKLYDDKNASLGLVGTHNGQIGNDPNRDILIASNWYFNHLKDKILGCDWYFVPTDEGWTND
measurement.kind: % inhibition of binding (%)

| binder | units.text | recorded.number |
| --- | --- | --- |
| SVT02L (VHH) VHH: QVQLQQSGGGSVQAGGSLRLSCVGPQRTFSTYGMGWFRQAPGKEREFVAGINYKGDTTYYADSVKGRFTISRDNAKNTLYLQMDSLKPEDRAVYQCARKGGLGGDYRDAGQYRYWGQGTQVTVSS | % | 3 |
